target: FGFR3 enzyme (Millipore) (Homo sapiens (Human)); experiment: FGFR3 Enzymatic Assay; format: biochemical; details: FRET peptide phosphorylation, 140 μM ATP
A collection of compounds and their measured IC50

Compound	IC50
CNC(=O)C(C)c1ccc(-c2ccc3c(c2)ncn3-c2cccc(NC(=O)NCC(F)(F)F)c2)cc1 (centres unmarked)	< 10 nM

In: Field request: IC50 | item: CC(C(=O)N1CCC(C#N)C1)c1ccc(-c2ccc3c(c2)ncn3-c2cccc(NC(=O)NCC(F)(F)F)c2)cc1 (centres unmarked)
Out: < 10 nM

In: Field request: IC50 | item: O=C(NCC(F)(F)F)Nc1cccc(-c2cnc3cc(-c4cnn(C5CCN(C(=O)NCc6ccccc6)CC5)c4)cnn23)c1
Out: < 10 nM

In: Field request: IC50 | item: CC(C(=O)N1CCC(C#N)C1)n1cc(-c2cnn3c(-c4cccc(NC(=O)NCC(F)(F)F)c4)cnc3c2)cn1 (centres unmarked)
Out: < 10 nM

In: Field request: IC50 | item: COC1CCN(C(=O)C(C)n2cc(-c3cnn4c(-c5cccc(NC(=O)NCC(F)(F)F)c5)cnc4c3)cn2)C1 (centres unmarked)
Out: < 10 nM

In: Field request: IC50 | item: CC(C(=O)N1CC[C@H](O)C1)c1ccc(-c2cnn3c(-c4cccc(NC(=O)NCC(F)(F)F)c4)cnc3c2)cc1 (some centres unmarked)
Out: < 10 nM

In: Field request: IC50 | item: O=C(NCC(F)(F)F)Nc1cccc(-c2cnc3cc(-c4cnn(C5CCN(C(=O)N6CCCC6)CC5)c4)cnn23)c1
Out: < 10 nM

In: Field request: IC50 | item: O=C(NCC(F)(F)F)Nc1cccc(-n2cnc3cc(-c4cnn(C5CCN(C(=O)N6CCCC6)CC5)c4)ccc32)c1
Out: < 10 nM

---

molecular target: FGFR3 enzyme (Millipore) (Homo sapiens (Human), UniProt P22607); assay: FGFR3 Enzymatic Assay; type: biochemical; settings: FRET peptide phosphorylation, 140 μM ATP
Sequence (P22607 23-806): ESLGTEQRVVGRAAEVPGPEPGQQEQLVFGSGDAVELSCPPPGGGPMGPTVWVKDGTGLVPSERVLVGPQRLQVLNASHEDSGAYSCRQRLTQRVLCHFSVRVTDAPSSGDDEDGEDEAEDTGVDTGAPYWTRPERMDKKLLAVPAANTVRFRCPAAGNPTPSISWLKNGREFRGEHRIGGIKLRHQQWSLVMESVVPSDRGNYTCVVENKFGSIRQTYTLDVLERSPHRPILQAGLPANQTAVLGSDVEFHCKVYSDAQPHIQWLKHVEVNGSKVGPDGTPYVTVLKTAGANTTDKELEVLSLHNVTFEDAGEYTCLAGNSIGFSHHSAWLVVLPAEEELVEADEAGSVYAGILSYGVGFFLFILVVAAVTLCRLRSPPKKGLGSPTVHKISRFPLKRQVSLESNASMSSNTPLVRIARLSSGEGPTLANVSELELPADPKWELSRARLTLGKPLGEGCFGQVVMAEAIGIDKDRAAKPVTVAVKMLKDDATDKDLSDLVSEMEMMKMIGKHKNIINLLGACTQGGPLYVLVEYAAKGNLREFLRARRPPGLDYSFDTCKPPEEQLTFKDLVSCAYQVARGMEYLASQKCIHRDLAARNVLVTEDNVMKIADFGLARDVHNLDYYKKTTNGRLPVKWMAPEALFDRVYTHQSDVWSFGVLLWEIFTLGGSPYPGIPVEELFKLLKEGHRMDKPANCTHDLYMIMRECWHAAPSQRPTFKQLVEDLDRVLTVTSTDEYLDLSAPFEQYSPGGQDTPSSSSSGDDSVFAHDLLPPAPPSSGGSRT
A collection of compounds and their measured IC50

Below, each entry is followed by its recorded IC50 result.
Compound	IC50
O=C(NCC(F)(F)F)Nc1cccc(-n2cnc3cc(-c4ccc(C(=O)NCC5CCCO5)cc4)ccc32)c1 (stereo not shown) [Example 8]	< 10 nM
CNC(=O)Nc1cccc(-c2cnc3cc(-c4cccc(C(=O)NCc5ccccc5F)c4)cnn23)c1 [Example 96]	> 25 nM

In: Field request: IC50 | item: CN(C)CC(=O)N1CC(CC#N)(n2cc(-c3cnn4c(-c5cccc(NC(=O)NCC(F)(F)F)c5)cnc4c3)cn2)C1 [Example 76]
Out: < 10 nM

In: Field request: IC50 | item: O=C(NCC(F)(F)F)Nc1cccc(-c2cnc3cc(-c4cnn(C5CCN(C(=O)CC6CC6)CC5)c4)cnn23)c1 [Example 41]
Out: < 10 nM
